Test system: 926638-142-R-J1-PDC complex spheroid viability;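 further: spheroids exposed to drugs for one week before readout; percent viability relative to DMSO vehicle control wells set as 100%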
Assay: Anticancer human tumor 926638-142-R-J1-PDC patient-derived endometrial carcinoma cell line growth inhibition [POLQ]
Details: second compound 0.1 µM; first compound 0.0316 µM; active compounds read low
So I've got a bunch of compounds here, and I need their viability, T/C values.
Reply numerically in %, unit not repeated.

Entry C=CC(=O)N1CCN(c2nc(=O)n(-c3c(C)ccnc3C(C)C)c3nc(-c4c(O)cccc4F)c(F)cc23)C(C)C1 (stereo unspecified) + COC1C(OC(N)=O)C(O)C(Oc2ccc3c(O)c(NC(=O)c4ccc(O)c(CC=C(C)C)c4)c(=O)oc3c2C)OC1(C)C , viability, T/C reported as 92.6

Just so you know, measured viability, T/C for CNCc1ccc(-c2[nH]c3cc(F)cc4c3c2CCNC4=O)cc1 + Nc1ccc(C#CCN(C(=O)Cc2ncc(C(F)(F)F)cc2C(F)(F)F)c2ccc(F)cc2)nn1 came out at 96.7

response.value for CCc1cc2c(N3CCc4c(cc(Cn5ccnc5)cc4-c4cn(C)nc4C(F)(F)F)C3=O)ccnc2c(OC)n1 + Nc1ccc(C#CCN(C(=O)Cc2ncc(C(F)(F)F)cc2C(F)(F)F)c2ccc(F)cc2)nn1 (field: viability, T/C) = 81.5

The recorded viability, T/C for COc1cccc(OCCCN)c1-c1cc(Nc2cnc(C#N)cn2)n[nH]1 + COC1C(OC(N)=O)C(O)C(Oc2ccc3c(O)c(NC(=O)c4ccc(O)c(CC=C(C)C)c4)c(=O)oc3c2C)OC1(C)C is 68.3

get_value(item= Nc1ccn(C2OC(CO)C(O)C2(F)F)c(=O)n1 (stereo unspecified) + Nc1ccc(C#CCN(C(=O)Cc2ncc(C(F)(F)F)cc2C(F)(F)F)c2ccc(F)cc2)nn1 , readout=viability, T/C) returns 96.8

compound C#Cc1c(F)ccc2cc(O)cc(-c3ncc4c(N5CC6CCC(C5)N6)nc(OCC56CCCN5CC(F)C6)nc4c3F)c12 (stereo unspecified) + Cc1cccc(N(C)C(=O)C2C(O)CCN2c2nc(C)cc(C(F)(F)F)c2C#N)c1 , viability, T/C observed: 87.2

Given item C=CC(=O)N1CCN(c2nc(=O)n(-c3c(C)ccnc3C(C)C)c3nc(-c4c(O)cccc4F)c(F)cc23)C(C)C1 (stereo unspecified) + Nc1ccc(C#CCN(C(=O)Cc2ncc(C(F)(F)F)cc2C(F)(F)F)c2ccc(F)cc2)nn1 , the value recorded as its viability, T/C is 107

Looking up Nc1ccn(C2OC(CO)C(O)C2(F)F)c(=O)n1 (stereo unspecified) + Cc1cccc(N(C)C(=O)C2C(O)CCN2c2nc(C)cc(C(F)(F)F)c2C#N)c1 , I found its viability, T/C recorded as 81.3

Lookup result for CNCc1ccc(-c2[nH]c3cc(F)cc4c3c2CCNC4=O)cc1 + COC1C(OC(N)=O)C(O)C(Oc2ccc3c(O)c(NC(=O)c4ccc(O)c(CC=C(C)C)c4)c(=O)oc3c2C)OC1(C)C ; measured viability, T/C: 78.9

So for COc1ccc([C@@H](O)c2cc(-c3ncnc4cc(N5CCOCC5)ccc34)c(F)cc2Cl)nn1 + COC1C(OC(N)=O)C(O)C(Oc2ccc3c(O)c(NC(=O)c4ccc(O)c(CC=C(C)C)c4)c(=O)oc3c2C)OC1(C)C , the logged viability, T/C turned out to be 109

Input Nc1ccn(C2OC(CO)C(O)C2(F)F)c(=O)n1 (stereo unspecified) + COC1C(OC(N)=O)C(O)C(Oc2ccc3c(O)c(NC(=O)c4ccc(O)c(CC=C(C)C)c4)c(=O)oc3c2C)OC1(C)C . Output viability, T/C: 86.2

Summary for this compound, CC1COCCN1c1cc(C2(S(C)(=N)=O)CC2)nc(-c2ccnc3[nH]ccc23)n1 (stereo unspecified) + Nc1ccc(C#CCN(C(=O)Cc2ncc(C(F)(F)F)cc2C(F)(F)F)c2ccc(F)cc2)nn1 : viability, T/C is 111

The compound listed as CC1COCCN1c1cc(-c2ccnn2C)c2ccnc(-c3ccn[nH]3)c2n1 (stereo unspecified) + COC1C(OC(N)=O)C(O)C(Oc2ccc3c(O)c(NC(=O)c4ccc(O)c(CC=C(C)C)c4)c(=O)oc3c2C)OC1(C)C has a reported viability, T/C of 89.4

Given item CNCc1ccc(-c2[nH]c3cc(F)cc4c3c2CCNC4=O)cc1 + Cc1cccc(N(C)C(=O)C2C(O)CCN2c2nc(C)cc(C(F)(F)F)c2C#N)c1 , the value recorded as its viability, T/C is 103

Entry C#Cc1c(F)ccc2cc(O)cc(-c3ncc4c(N5CC6CCC(C5)N6)nc(OCC56CCCN5CC(F)C6)nc4c3F)c12 (stereo unspecified) + Nc1ccc(C#CCN(C(=O)Cc2ncc(C(F)(F)F)cc2C(F)(F)F)c2ccc(F)cc2)nn1 , viability, T/C reported as 125

// viability, T/C lookup, compound = CC(C)n1c(=O)n(C)c2cnc3cc(F)c(-c4ccc(OCCCN5CCCCC5)nc4)cc3c21 + Cc1cccc(N(C)C(=O)C2C(O)CCN2c2nc(C)cc(C(F)(F)F)c2C#N)c1 , result: 94.6

Consider CC1COCCN1c1cc(-c2ccnn2C)c2ccnc(-c3ccn[nH]3)c2n1 (stereo unspecified) + Nc1ccc(C#CCN(C(=O)Cc2ncc(C(F)(F)F)cc2C(F)(F)F)c2ccc(F)cc2)nn1 . Its measured viability, T/C is 108

Looking up COc1cccc2c1C(=O)c1c(O)c3c(c(O)c1C2=O)CC(O)(C(=O)CO)CC3OC1CC(N)C(O)C(C)O1 (stereo unspecified) + COC1C(OC(N)=O)C(O)C(Oc2ccc3c(O)c(NC(=O)c4ccc(O)c(CC=C(C)C)c4)c(=O)oc3c2C)OC1(C)C , I found its viability, T/C recorded as 81

Item: O=c1[nH]cc(F)c(=O)[nH]1 + COC1C(OC(N)=O)C(O)C(Oc2ccc3c(O)c(NC(=O)c4ccc(O)c(CC=C(C)C)c4)c(=O)oc3c2C)OC1(C)C | viability, T/C: 106

Record summary for O=C(Nc1ccc(O)c(NS(=O)(=O)c2ccc(F)cc2)c1)c1ccc(-c2ccccc2)cc1 + Cc1cccc(N(C)C(=O)C2C(O)CCN2c2nc(C)cc(C(F)(F)F)c2C#N)c1 : reported viability, T/C = 104

Value of viability, T/C reported for the compound O=C(c1cc(Cc2n[nH]c(=O)c3ccccc23)ccc1F)N1CCN(C(=O)C2CC2)CC1 + Nc1ccc(C#CCN(C(=O)Cc2ncc(C(F)(F)F)cc2C(F)(F)F)c2ccc(F)cc2)nn1 is 101
